The values you see were collected from patent US10131652B2.

# Tested on: pigweed (Amaranthus retroflexus)
# experiment: Test B pre-/postemergence plant response
# Assay type: in vivo
# condition-parameters: 125 g ai/ha, postemergence; 0 to 100 scale, 0 no effect, 100 complete control
measurement-type: Plant response rating, Pigweed
Give bare numbers.

• Clc1cnc(Oc2ccccc2-c2cc(Cl)ncn2)nc1 = 0
• FC(F)(F)c1cnc(Oc2ccccc2-c2cncs2)nc1 = 0
• Fc1ccc(Oc2ncc(Cl)cn2)c(-c2cc(C(F)(Cl)Cl)on2)c1 = 90
• Fc1cnc(Oc2ccccc2-c2cnccn2)nc1 = 30
• Clc1cnc(Oc2ccccc2-c2cccc(Cl)n2)nc1 = 0

For every item in the list below, what is its measured Plant response rating, Pigweed?
1. Brc1cnc(Oc2ccccc2-c2cc(Br)no2)nc1
2. FC(F)(F)COc1cc(-c2ccccc2Oc2ncc(Cl)cn2)ncn1
3. Clc1cnc(Oc2ccccc2-c2cccs2)nc1
4. Fc1cccc(Oc2ncc(Cl)cn2)c1-c1cc(C(F)(F)F)no1
5. FC(F)Oc1cccc(Oc2ncc(Cl)cn2)c1-c1cc(C(F)F)on1

[reply]
80
90
40
100
100
